Reported MIC S. aureus ATCC 9144 is given for each of the following compounds.
# Tested on: Staphylococcus aureus ATCC 9144
# Type: cell-based
# conditionDetails: Table S3; technical replicate 2, biological replicate BR2
Where a SMILES comes first, the peptide text is derived from it. [ ]: non-standard residue; d: D form. Bip = N[C@@H](Cc1ccc(-c2ccccc2)cc1)C(=O)O; Lys(N3) = [N-]=[N+]=NCCCC[C@H](N)C(=O)O

compound	MIC S. aureus ATCC 9144, µg/mL
[N-]=[N+]=NCCCC[C@H](NC(=O)[C@H](Cc1ccccc1)NC(=O)[C@H](CCCNC(=N)N)NC(=O)[C@H](Cc1c[nH]c2ccccc12)NC(=O)[C@H](Cc1c[nH]c2ccccc12)NC(=O)[C@@H](N)CCCNC(=N)N)C(N)=O [1c] (H-RWWRF[Lys(N3)]-NH2)	32
[N-]=[N+]=NCCCC[C@H](NC(=O)[C@H](Cc1ccccc1)NC(=O)[C@H](CCCNC(=N)N)NC(=O)[C@H](Cc1ccc(-c2ccccc2)cc1)NC(=O)[C@H](Cc1ccc(-c2ccccc2)cc1)NC(=O)[C@@H](N)CCCNC(=N)N)C(N)=O [2c] (H-R[Bip][Bip]RF[Lys(N3)]-NH2)	8
[N-]=[N+]=NCCCC[C@@H]1NC(=O)[C@H](Cc2ccccc2)NC(=O)[C@H](CCCNC(=N)N)NC(=O)[C@H](Cc2ccc(-c3ccccc3)cc2)NC(=O)[C@H](Cc2ccc(-c3ccccc3)cc2)NC(=O)[C@H](CCCNC(=N)N)NC1=O [2d] (cyclo(R[Bip][Bip]RF[Lys(N3)]))	4
[N-]=[N+]=NCCCC[C@@H]1NC(=O)[C@H](Cc2ccccc2)NC(=O)[C@H](CCCNC(=N)N)NC(=O)[C@H](Cc2c[nH]c3ccccc23)NC(=O)[C@H](Cc2c[nH]c3ccccc23)NC(=O)[C@H](CCCNC(=N)N)NC1=O [1d] (cyclo(RWWRF[Lys(N3)]))	16
